Where do these numbers come from? They come from the kinase profiling compilation of Christmann-Franck et al. (2016).

assayedTarget: MAP3K7 TAB1 (human) (UniProt O43318+Q15750)
Sequence (O43318 whole entry, looked up): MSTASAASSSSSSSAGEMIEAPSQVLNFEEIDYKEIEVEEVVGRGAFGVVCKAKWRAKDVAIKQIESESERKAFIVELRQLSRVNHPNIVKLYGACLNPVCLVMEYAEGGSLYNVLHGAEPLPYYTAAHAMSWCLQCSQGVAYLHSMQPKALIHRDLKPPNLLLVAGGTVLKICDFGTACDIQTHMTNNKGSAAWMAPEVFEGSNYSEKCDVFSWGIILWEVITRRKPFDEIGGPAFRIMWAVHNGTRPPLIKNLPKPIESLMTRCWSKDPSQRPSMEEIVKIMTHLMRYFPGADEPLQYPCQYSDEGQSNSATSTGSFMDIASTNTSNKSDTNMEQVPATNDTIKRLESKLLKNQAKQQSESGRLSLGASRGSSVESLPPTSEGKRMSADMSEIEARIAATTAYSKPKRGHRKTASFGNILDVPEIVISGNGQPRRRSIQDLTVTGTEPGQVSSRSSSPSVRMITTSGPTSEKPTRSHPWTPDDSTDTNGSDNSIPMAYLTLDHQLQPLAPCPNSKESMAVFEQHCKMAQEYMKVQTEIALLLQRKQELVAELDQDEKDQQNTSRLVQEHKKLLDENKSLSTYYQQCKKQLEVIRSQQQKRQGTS
Sequence (Q15750 whole entry, looked up): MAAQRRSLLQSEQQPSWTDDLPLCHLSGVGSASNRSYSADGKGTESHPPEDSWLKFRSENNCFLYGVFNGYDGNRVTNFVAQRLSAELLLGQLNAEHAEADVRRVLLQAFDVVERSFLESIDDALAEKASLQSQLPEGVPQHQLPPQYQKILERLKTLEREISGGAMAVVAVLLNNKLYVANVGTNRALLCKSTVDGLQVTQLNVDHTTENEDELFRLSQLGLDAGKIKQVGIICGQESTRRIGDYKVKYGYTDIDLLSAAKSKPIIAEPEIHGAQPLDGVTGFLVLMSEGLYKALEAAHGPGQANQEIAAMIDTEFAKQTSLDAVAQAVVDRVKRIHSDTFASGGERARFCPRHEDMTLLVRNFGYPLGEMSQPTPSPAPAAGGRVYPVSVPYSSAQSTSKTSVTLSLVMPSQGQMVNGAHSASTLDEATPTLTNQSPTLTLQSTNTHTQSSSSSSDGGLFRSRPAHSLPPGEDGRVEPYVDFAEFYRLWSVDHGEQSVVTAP
experimentalDetails: radiometric filter-binding kinase assay, Kinase HotSpot
measurementContext: compound 0.5 µM; ATP 10 µM
Use met when the recorded residual activity is no lower than 90%; use not met when it is lower.

>  <chemicalString>
Nc1nc(Nc2ccc(S(N)(=O)=O)cc2)nn1C(=S)Nc1c(F)cccc1F

>  <classLabel>
not met

$$$$
>  <chemicalString>
CC(C)(C)c1nc2c3ccc(F)cc3c3c(=O)[nH]ccc3c2[nH]1

>  <classLabel>
not met

$$$$
>  <chemicalString>
O=c1cc(N2CCNCC2)oc2c(-c3ccccc3)cccc12

>  <classLabel>
met

$$$$
>  <chemicalString>
Nc1n[nH]c2nnc(-c3c(-c4ccccc4)nn4ccccc34)cc12

>  <classLabel>
met

$$$$
>  <chemicalString>
Nc1nc(Nc2ccc(S(N)(=O)=O)cc2)nn1C(=O)c1c(F)cccc1F

>  <classLabel>
not met

$$$$
>  <chemicalString>
Clc1ccc(Nc2nnc(Cc3ccncc3)c3ccccc23)cc1

>  <classLabel>
met

$$$$
